Hello, the source for this data is PubChem BioAssay (NCI), in case you need it.

Here the recorded TGI is given for each entry.
System: SR leukemia
Test description: NCI tumour cell line growth inhibition, 48 h

Known TGI results, listed for orientation:
- Compound: "CCCCCCCCCCC(O)C1CCC(C2CCC(C(O)CCCCC(O)CCCCCC(O)CC3=CC(C)OC3=O)O2)O1 (stereo unspecified)"
  Target entity: "SR leukemia"
  TGI: "> 25 µM"
- Compound: "C[C@]12CC[C@@H]3c4ccc(O)cc4C[C@@H](CCCCCCCCCS(=O)CCCC(F)(F)C(F)(F)F)[C@H]3[C@@H]1CC[C@@H]2O (stereo partly specified)"
  Target entity: "SR leukemia"
  TGI: "> 100 µM"
- Compound: "O=C(Nc1ccc2nc(-c3ccccc3)cn2c1)Oc1ccccc1"
  Target entity: "SR leukemia"
  TGI: "> 100 µM"
- Compound: "C=CCN1C(=O)/C(=C/c2ccccc2)NC1=S"
  Target entity: "SR leukemia"
  TGI: "> 100 µM"
- Compound: "Oc1ccc2ccccc2c1N=Nc1ccc(F)cc1"
  Target entity: "SR leukemia"
  TGI: "> 100 µM"

QUERY: State its TGI on SR leukemia: `O=C1NC(Nc2cccc(Cl)c2)=N/C1=C\c1ccc(Cl)c(Cl)c1`
RESULT: 7.37 µM

QUERY: State its TGI on SR leukemia: CCOc1cc(NC(C)=O)ccc1C(=O)NN1C(=O)C(Oc2ccccc2)C1c1ccc(O)c(OC)c1 (stereo unspecified)
RESULT: > 100 µM

QUERY: State its TGI on SR leukemia: CCC1(O)C(=O)OCc2c1cc1n(c2=O)Cc2cc3c(N)cccc3nc2-1 (stereo unspecified)
RESULT: < 0.0114 µM

QUERY: State its TGI on SR leukemia: O=C1CCC(c2ccccc2)C(O)(C(=O)O)C1 (stereo unspecified)
RESULT: > 100 µM

QUERY: State its TGI on SR leukemia: COC1(OC)C2(Cl)CCC1(Cl)C(OC(C)=O)C2 (stereo unspecified)
RESULT: > 100 µM

QUERY: State its TGI on SR leukemia: `N#CCCN(c1ccc(/C=C2\N=C(c3ccc(Cl)cc3)OC2=O)cc1)S(=O)(=O)c1ccccc1`
RESULT: > 100 µM

QUERY: State its TGI on SR leukemia: `Cc1cc(NS(=O)(=O)c2ccc(N=Nc3c(O)c(C(=O)O)cc4ccccc34)cc2)nc(C)n1`
RESULT: > 100 µM

QUERY: State its TGI on SR leukemia: COc1ccc(-c2c(C(C)=O)c(-c3ccccc3)n(C3OC(COC(C)=O)C(OC(C)=O)C(OC(C)=O)C3OC(C)=O)c(=S)c2C#N)cc1 (stereo unspecified)
RESULT: > 100 µM

QUERY: State its TGI on SR leukemia: CC(=O)OC[C@]12CC[C@H]3[C@@H](C[C@H]4O[C@]45CC=CC(=O)[C@]35C)[C@]1(O)CC[C@@]2(O)[C@@](C)(O)C1CC(C)=C(C)C(=O)O1 (stereo partly specified)
RESULT: > 38 µM

QUERY: State its TGI on SR leukemia: `N#CC1=C(N2CCCC2)NC(=O)CC1=O`
RESULT: > 100 µM

QUERY: State its TGI on SR leukemia: `C=CCNc1ccc(C)cc1`
RESULT: > 100 µM

QUERY: State its TGI on SR leukemia: `N#Cc1cnsc1`
RESULT: > 100 µM

QUERY: State its TGI on SR leukemia: `O=[N+]([O-])c1ccc2nnnn2c1`
RESULT: 87.1 µM

QUERY: State its TGI on SR leukemia: `COc1ccc2c(c1)OCc1c-2oc2ccccc2c1=O`
RESULT: > 100 µM

QUERY: State its TGI on SR leukemia: `O=C(CC(=O)N(C(=O)c1ccccc1)c1ccc(Cl)cc1)N/N=C\c1cc(N=Nc2ccccc2Cl)ccc1O`
RESULT: 35.8 µM

QUERY: State its TGI on SR leukemia: `O=[N+]([O-])c1ccccc1N=Nc1c(O)sc2ccccc12`
RESULT: > 100 µM

QUERY: State its TGI on SR leukemia: COc1ccc(C2CC(=O)c3c(O)c(OC)c(OC)c(OC)c3O2)c(O)c1 (stereo unspecified)
RESULT: 27 µM

QUERY: State its TGI on SR leukemia: `O=C(CCCSc1nc(-c2ccc(Cl)cc2)cc(-c2ccc(Cl)cc2)n1)NO`
RESULT: 13 µM

QUERY: State its TGI on SR leukemia: COC(=O)C(=O)C(C(=O)C=C(C)C)C(=O)C(=O)Nc1ccc(Cl)cc1C (stereo unspecified)
RESULT: 45.2 µM

QUERY: State its TGI on SR leukemia: `COc1ccc(C(=O)O)c(Cc2cccc3ccccc23)c1`
RESULT: > 100 µM

QUERY: State its TGI on SR leukemia: COC(=O)CCC(=O)NC1c2cccc3cccc(c23)Cn2c(=O)n(C)c(=O)n21 (stereo unspecified)
RESULT: > 100 µM

----------
Here the recorded GI50 is given for each entry.
Test system: HOP-92 NSCLC
Test description: NCI tumour cell line growth inhibition, 48 h

- Molecule: "Cc1c2c(nn1-c1ccc(S(=O)(=O)/N=C3\\SCC(=O)N3C(=O)c3ccccc3)cc1)-c1ccccc1CC2"
  GI50: "30.9 µM"

Now consider the entry below.
QUERY: What does the record list as GI50 for `COc1ccc(-n2c(SCc3cc(OC)c(OC)c(OC)c3)nc3ccc(C)cc3c2=O)cc1` ?
RESULT: 1.75 µM

----------
System: A498 renal
Test description: NCI tumour cell line growth inhibition, 48 h; in the data active = GI50 below about 0.43 µM; inactive = the rest
Would you mind answering with one of these outcomes? active, inactive

QUERY: GET /call?item= `O=C(CCCSc1nc(-c2ccc(Cl)cc2)cc(-c2ccc(Cl)cc2)n1)NO` returns the recorded outcome of this test.
RESULT: inactive

QUERY: GET /call?item= `CC(C)CSc1nc(Nc2ccccc2)c(C#N)c(-c2ccc(F)cc2)n1` returns the recorded outcome of this test.
RESULT: inactive

QUERY: GET /call?item= `Cn1cc(C2=C(c3cn(CCCN=C(N)N)c4ccccc34)C(=O)NC2=O)c2ccccc21` returns the recorded outcome of this test.
RESULT: inactive

QUERY: GET /call?item= `CCCCC/C=C/C/C=C/CCCCCCCC1=NC(C)(C)CN1C(C)C` returns the recorded outcome of this test.
RESULT: inactive

QUERY: GET /call?item= COc1ccc(OC(=O)O[C@H]2[C@H](O[C@H]3[C@@H](O)COC(O[C@H]4C[C@H]5[C@@H]6CC=C7C[C@@H](O)CC[C@]7(C)[C@H]6CC[C@]5(C)[C@H]4[C@H](C)C(=O)CCC(C)C)[C@@H]3OC(C)=O)OC[C@@H](O)[C@@H]2O)cc1 (some centres not stated) returns the recorded outcome of this test.
RESULT: active

QUERY: GET /call?item= `COc1ccc(S(=O)(=O)N(Cc2ccc3c(n2)C=CC(C)(C)O3)C2CCC2)cc1OC` returns the recorded outcome of this test.
RESULT: active

QUERY: GET /call?item= `O=C(C[C@@H](C(=O)NCc1cccc(C(F)(F)F)c1)N1C(=O)[C@@H](N2C(=O)OC[C@@H]2c2ccccc2)[C@H]1/C=C/c1ccccc1)NC1CCN(Cc2ccccc2)CC1` returns the recorded outcome of this test.
RESULT: inactive

----------
System: SNB-75 CNS
Test description: NCI tumour cell line growth inhibition, 48 h
Quantity: TGI

- Compound: "C1=C2C3=[N+](CCCC3)CC2Cc2ccsc21 (stereo unspecified)"
  TGI: "> 100 µM"
- Compound: "CSc1nc(NC2OC(COC(C)=O)C(OC(C)=O)C(OC(C)=O)C2OC(C)=O)c2c(OC(C)=O)c(C)c(=O)oc2n1 (stereo unspecified)"
  TGI: "> 100 µM"
- Compound: "COc1cccc(N=Cc2c3ccccc3c(=O)n3c2oc2ccccc23)c1"
  TGI: "> 100 µM"
- Compound: "O=c1[nH]c(=O)n(C2CC(O)C(CS)O2)cc1F (stereo unspecified)"
  TGI: "> 100 µM"
- Compound: "N#CCCN(c1ccc(/C=C2\\N=C(c3ccc(Cl)cc3)OC2=O)cc1)S(=O)(=O)c1ccccc1"
  TGI: "> 100 µM"

QUERY: What does the record list as TGI for `Cc1cc(C)cc(Nc2cc(C)nc3nc(C(F)(F)F)nn23)c1` ?
RESULT: > 100 µM

QUERY: What does the record list as TGI for CC(=O)c1cccc2c1CC1(C2)Cc2ccc3c(c2C1=O)CCC3 (stereo unspecified) ?
RESULT: > 100 µM

QUERY: What does the record list as TGI for `C[N+](C)(N)CCC[N+](C)(C)N` ?
RESULT: > 100 µM

QUERY: What does the record list as TGI for `CCOC(=O)C(=C(SC)SC)c1nn2c(=O)cc(C)nc2s1` ?
RESULT: 89.6 µM

QUERY: What does the record list as TGI for `CC(C)CSc1nc(Nc2ccccc2)c(C#N)c(-c2ccc(F)cc2)n1` ?
RESULT: 5.21 µM

QUERY: What does the record list as TGI for `O=C(O)c1cc(N=Nc2ccc([As](=O)(O)O)cc2)ccc1O` ?
RESULT: > 100 µM
